test: Stability (hydrolysis kinetics) in rat whole blood; assay type: in vitro ADME; details: whole blood (heparinised), 37 °C, 5 μM compound

COMPOUND	half-life at 5 μM
CC(C)CC(NC(=O)Oc1ccc(/C=C/c2cc(OC(=O)NC(CC(C)C)C(=O)O)cc(OC(=O)NC(CC(C)C)C(=O)O)c2)cc1)C(=O)O (stereo not shown) [Derivative 2]	60 min
O=C(NC(Cc1ccccc1)C(=O)O)Oc1ccc(/C=C/c2cc(OC(=O)NC(Cc3ccccc3)C(=O)O)cc(OC(=O)NC(Cc3ccccc3)C(=O)O)c2)cc1 (stereo not shown) [Derivative 5]	18 min
CC(O)C(NC(=O)Oc1ccc(/C=C/c2cc(OC(=O)NC(C(=O)O)C(C)O)cc(OC(=O)NC(C(=O)O)C(C)O)c2)cc1)C(=O)O (stereo not shown) [Derivative 4]	10.2 min
CCC(C)C(NC(=O)Oc1ccc(/C=C/c2cc(OC(=O)NC(C(=O)O)C(C)CC)cc(OC(=O)NC(C(=O)O)C(C)CC)c2)cc1)C(=O)O (stereo not shown) [Derivative 3]	60 min
